Tested on: SK-MEL-5 melanoma
protocolSummary: NCI-60 one-dose screen, 48 h
conditionParameters: 10 µM unless noted
About 83,000 compounds went through this panel and 20% of them were active in at least one assay; those are over-represented in the sample as a whole. The source made the active and inactive calls. How the source made its calls: active means growth percent below 10; inactive means the rest.
Please answer using one outcome listed in T = active, F = inactive

[[record]]
substancesmiles = "CSc1nc(NCCO)c(C#N)c(-c2cccc(N)c2)n1"
categorylabel = "F"

[[record]]
substancesmiles = "CCCCCCCCSC1=CC(=O)C(OC)=C(OC)C1=O"
categorylabel = "T"

[[record]]
substancesmiles = "Nc1nc(SCc2ccccc2)c2ncn(C3CCCC3)c2n1"
categorylabel = "F"


[Q] Dear all, I need the recorded test outcome for O=C1C(Cl)=C(Cl)C(=O)c2c1nc1n2CCCC1 , thank you.
[A] F
